Ref: ChEMBL document CHEMBL2046330

# TEST SUMMARY: Cmax in BALB/c mouse at 10 mg/kg, po administered as single dose
# Format: ADME, organism-based
# Parameters: dose 10 mg/kg, route oral
# EXPERIMENTAL CONTEXT: in vivo
OBSERVABLE: Cmax (nM)
Use nM as the unit, but write only the number.

(Q) May I ask what Cmax has been recorded for CCN(CC)CCOc1cccc2oc3c4c(=O)c5c(O)c(C)c6c(c5c-3nc12)C(=O)[C@@](C)(O/C=C/[C@H](OC)[C@@H](C)[C@@H](OC(C)=O)[C@H](C)[C@H](O)[C@H](C)[C@@H](O)[C@@H](C)/C=C/C=C(/C)C(=O)N4)O6 ?
(A) 18.5

* * *

# TEST SUMMARY: Half life in human microsomes
# Type: ADME, Microsome
Measured half-life by item
Please append the unit to your numeric answer.

CCN(CC)CCOc1cccc2oc3c4c(=O)c5c(O)c(C)c6c(c5c-3nc12)C(=O)[C@@](C)(O/C=C/[C@H](OC)[C@@H](C)[C@@H](OC(C)=O)[C@H](C)[C@H](O)[C@H](C)[C@@H](O)[C@@H](C)/C=C/C=C(/C)C(=O)N4)O6	54 min

Now for a further molecule.
(Q) Return reported half-life; argument: CO[C@H]1/C=C/O[C@@]2(C)Oc3c(C)c(O)c4c(=O)c(c5oc6cc(N7CCN(CC(C)C)CC7)cc(O)c6nc-5c4c3C2=O)NC(=O)/C(C)=C\C=C\[C@H](C)[C@H](O)[C@@H](C)[C@@H](O)[C@@H](C)[C@H](OC(C)=O)[C@@H]1C [RIFALAZIL]
(A) 65 min

* * *

# TEST SUMMARY: Metabolic stability in human microsomes assessed as compound remaining after 30 mins
# Type: ADME, Microsome
# EXPERIMENTAL CONTEXT: read-out: Stability
Entries and their measured remaining at 0.5 h follow.
The reply should be a number in %, with the unit left off.

CO[C@H]1/C=C/O[C@@]2(C)Oc3c(C)c(O)c4c(=O)c(c5oc6cc(N7CCN(CC(C)C)CC7)cc(O)c6nc-5c4c3C2=O)NC(=O)/C(C)=C\C=C\[C@H](C)[C@H](O)[C@@H](C)[C@@H](O)[C@@H](C)[C@H](OC(C)=O)[C@@H]1C	73

(Q) Give the measured remaining at 0.5 h of CCN(CC)CCOc1cccc2oc3c4c(=O)c5c(O)c(C)c6c(c5c-3nc12)C(=O)[C@@](C)(O/C=C/[C@H](OC)[C@@H](C)[C@@H](OC(C)=O)[C@H](C)[C@H](O)[C@H](C)[C@@H](O)[C@@H](C)/C=C/C=C(/C)C(=O)N4)O6 .
(A) 68

* * *

# TEST SUMMARY: Metabolic stability in mouse microsomes assessed as compound remaining after 30 mins
# Format: ADME, Microsome
# EXPERIMENTAL CONTEXT: read-out: Stability
Reported remaining at 0.5 h by item:
Response body: numeric value in %, unit text excluded.

CO[C@H]1/C=C/O[C@@]2(C)Oc3c(C)c(O)c4c(=O)c(c5oc6cc(N7CCN(CC(C)C)CC7)cc(O)c6nc-5c4c3C2=O)NC(=O)/C(C)=C\C=C\[C@H](C)[C@H](O)[C@@H](C)[C@@H](O)[C@@H](C)[C@H](OC(C)=O)[C@@H]1C	67

(Q) Name the reported remaining at 0.5 h value associated with the compound CCN(CC)CCOc1cccc2oc3c4c(=O)c5c(O)c(C)c6c(c5c-3nc12)C(=O)[C@@](C)(O/C=C/[C@H](OC)[C@@H](C)[C@@H](OC(C)=O)[C@H](C)[C@H](O)[C@H](C)[C@@H](O)[C@@H](C)/C=C/C=C(/C)C(=O)N4)O6
(A) 86
